molecular target: Platelet-activating factor acetylhydrolase (Homo sapiens); assay: pPAFAH enzyme inhibitors, primary screen, biochemical, fluorescence polarization, human (AID 463082); conditions: recombinant pPAFAH, FP-rhodamine probe fluorescence polarization; at 3.39 µM;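 also: inhibitors block binding of the rhodamine activity-based probe so polarization drops; 0% = enzyme with DMSO and 100% = wells lacking pPAFAH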
Among all 330,000 compounds or so, about 4,900 (1.5%) were called active.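 The calls were made as follows: active = inhibition above the mean inhibition across the screen plus 3 SD (cut at about 25% in these data); inactive = the rest.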 This excerpt belongs to a sample that is enriched for actives.
API: response.call in active, inactive

{"columns": ["Compound", "System Under Test", "Assigned Category"],
 "data": [
  ["CC(=O)Nc1ccccc1OC(=O)N1CCOCC1", "Platelet-activating factor acetylhydrolase (Homo sapiens)", "inactive"],
  ["CC(=O)N1CCc2cc(Br)cc(S(=O)(=O)CCC(=O)Nc3c(C)n(C)n(-c4ccccc4)c3=O)c21", "Platelet-activating factor acetylhydrolase (Homo sapiens)", "inactive"],
  ["O=S(=O)(c1ccc(NC(=S)NN=C(C2CC2)C2CC2)cc1)N1CCOCC1", "Platelet-activating factor acetylhydrolase (Homo sapiens)", "inactive"],
  ["COc1ccc(NC(=O)CNC(=O)Cc2ccccc2)cc1OC", "Platelet-activating factor acetylhydrolase (Homo sapiens)", "inactive"]
]}

Please look at the following compound next.
Input line: What classification did `Cc1ccc(/C=N/NC(=O)c2cc3ccccc3cc2O)o1` end up with in this test?
Output line: active

* * *

target: Platelet-activating factor acetylhydrolase (Homo sapiens); test: pPAFAH enzyme inhibitors, primary screen, biochemical, fluorescence polarization, human (AID 463082); conditions: recombinant pPAFAH, FP-rhodamine probe fluorescence polarization; at 3.39 µM; stronger effect = higher value
Hit rate of the full screen: of about 330,000 compounds, about 4,900 (1.5%) were called active. What follows is part of a selection rich in actives, with near analogues and random picks from the rest.
Result Type: inhibition (%)
Just the number please, in %, no unit attached.

Example cases with answers are listed next.
{"columns": ["Compound", "inhibition [%]"],
 "data": [
  ["COc1cc(C2CC(=O)N3CN(Cc4ccccc4)CSC3=C2C#N)ccc1OCc1ccccc1 (stereo not drawn)", 35.3],
  ["C=CCC[C@H](Cc1ccc(F)cc1)C(=O)OC[C@@H](NC(=O)[C@@H](CC=C)CC(=O)N[C@H](CO)Cc1ccccc1)C(C)(C)C", 4.14],
  ["Cc1cc2nc3c(=O)n(Cc4ccccc4)c(=O)[nH]c3nc2cc1N", 59.1],
  ["CCOCCCNC(=O)C(=O)NCCCOCC", 7.96],
  ["CONc1nc2nonc2nc1NOC", 4.61],
  ["Cc1ccc(NC(=O)CSc2nc(CSc3ccc(C)cc3)cc(=O)[nH]2)cc1", 17.3]
]}

Input line: Please give measured inhibition of the following entry: `CCN(C(=O)COC(=O)c1cc(NS(=O)(=O)c2ccc(Cl)c([N+](=O)[O-])c2)ccc1O)C1CCCCC1`
Output line: -1.02

Input line: Please give measured inhibition of the following entry: `O=C(NCCCN1CCCC1=O)c1ccc(S(=O)(=O)Nc2ccccc2)cc1`
Output line: 28.1

* * *

Parameter: inhibition. Scope: all listed entries.
target: Platelet-activating factor acetylhydrolase (Homo sapiens) (UniProt Q13093); test: pPAFAH enzyme inhibitors, primary screen, biochemical, fluorescence polarization, human (AID 463082); settings: recombinant pPAFAH, FP-rhodamine probe fluorescence polarization; at 3.39 µM; stronger effect = higher value;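 also: inhibitors block binding of the rhodamine activity-based probe so polarization drops; 0% = enzyme with DMSO and 100% = wells lacking pPAFAH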
Sequence (Q13093 whole entry, looked up): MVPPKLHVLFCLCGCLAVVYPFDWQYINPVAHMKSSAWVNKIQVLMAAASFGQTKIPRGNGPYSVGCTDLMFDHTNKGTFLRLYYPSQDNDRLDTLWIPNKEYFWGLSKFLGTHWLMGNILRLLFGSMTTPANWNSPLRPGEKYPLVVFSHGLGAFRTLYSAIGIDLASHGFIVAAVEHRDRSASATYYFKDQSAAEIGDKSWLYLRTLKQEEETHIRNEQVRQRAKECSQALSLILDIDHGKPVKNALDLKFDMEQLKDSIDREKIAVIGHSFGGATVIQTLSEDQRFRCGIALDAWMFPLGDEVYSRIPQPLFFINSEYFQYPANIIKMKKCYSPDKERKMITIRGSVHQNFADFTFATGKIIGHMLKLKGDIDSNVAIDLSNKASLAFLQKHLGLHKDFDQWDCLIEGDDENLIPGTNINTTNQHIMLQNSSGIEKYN
Screen size: about 330,000 compounds; about 4,900 (1.5%) were called active. This excerpt belongs to a sample that is enriched for actives.
Just the number please, in %, no unit attached.

Example cases with answers are listed next.
{"columns": ["Compound", "System Under Test", "inhibition [%]"],
 "data": [
  ["CCCC(C)C(=O)NCc1ccncc1 (centres undefined)", "Platelet-activating factor acetylhydrolase (Homo sapiens) (UniProt Q13093)", -2.95],
  ["CCCc1ccc(C(=O)[C@@H]2[C@@H](C(C)=O)N3c4ccc(F)cc4C=C[C@@H]3[C@@]23C(=O)Nc2ccccc23)cc1", "Platelet-activating factor acetylhydrolase (Homo sapiens) (UniProt Q13093)", 2.89],
  ["O=C(Nc1cccc(S(=O)(=O)NC2=NCCC2)c1)C1CCCCC1", "Platelet-activating factor acetylhydrolase (Homo sapiens) (UniProt Q13093)", 3.38],
  ["Cc1ccccc1CN1C[C@@H]2C[C@@H](c3cn(C)nc3-c3ccccc3)N3CCC[C@@]23C1=O", "Platelet-activating factor acetylhydrolase (Homo sapiens) (UniProt Q13093)", 8.05],
  ["Cc1ccc(NC(=O)c2c(NC(=O)CCC(=O)O)sc3c2CCCCC3)cc1", "Platelet-activating factor acetylhydrolase (Homo sapiens) (UniProt Q13093)", 24.6]
]}

Input line: Would you please give the reported inhibition of `CC(C)N(C(=O)[C@H]1C[C@H](CC(=O)NCCC2=CCCCC2)C(=O)N2CCc3c([nH]c4cc(CCC(=O)N(C)C)ccc34)[C@]12C)C(C)C` with Platelet-activating factor acetylhydrolase (Homo sapiens) (UniProt Q13093)?
Output line: 16.4

Input line: Would you please give the reported inhibition of `C=CCN(N=Nc1cccc([N+](=O)[O-])c1)c1cccc([N+](=O)[O-])c1` with Platelet-activating factor acetylhydrolase (Homo sapiens) (UniProt Q13093)?
Output line: 9.93

Input line: Would you please give the reported inhibition of COCCN1C=C2C(=O)C(C)(OC(=O)C3CCCC3)C(=O)C=C2C=C1c1ccsc1 (centres undefined) with Platelet-activating factor acetylhydrolase (Homo sapiens) (UniProt Q13093)?
Output line: 5.4

Input line: Would you please give the reported inhibition of COc1ccc2c(-c3ccccc3)cc(SCC(=O)N(C)C3CCS(=O)(=O)C3)nc2c1 (centres undefined) with Platelet-activating factor acetylhydrolase (Homo sapiens) (UniProt Q13093)?
Output line: 34

Input line: Would you please give the reported inhibition of O=C(Nc1ccc2c(c1)OCO2)C1CC(c2c(F)cccc2Cl)=NO1 (centres undefined) with Platelet-activating factor acetylhydrolase (Homo sapiens) (UniProt Q13093)?
Output line: 1.16

Input line: Would you please give the reported inhibition of `Cc1ccsc1C(=O)OCC(=O)Nc1cccc(F)c1` with Platelet-activating factor acetylhydrolase (Homo sapiens) (UniProt Q13093)?
Output line: 31.5

Input line: Would you please give the reported inhibition of `COc1ccc(-c2nn(-c3ccccc3)cc2/C=C\C(=O)Nc2ccc(C(=O)O)cc2)cc1` with Platelet-activating factor acetylhydrolase (Homo sapiens) (UniProt Q13093)?
Output line: -67.2

Input line: Would you please give the reported inhibition of `COC(=O)N/N=C/c1cn(CCCOc2ccc(C)cc2)c2ccccc12` with Platelet-activating factor acetylhydrolase (Homo sapiens) (UniProt Q13093)?
Output line: 19.2

Input line: Would you please give the reported inhibition of `CC[C@]12c3[nH]c4cc(CCC(=O)N(C)C)ccc4c3CCN1C(=O)[C@@H](CC(=O)NCC13CC4CC(CC(C4)C1)C3)C[C@@H]2C(=O)N1CCN(C(=O)C2CC2)CC1` with Platelet-activating factor acetylhydrolase (Homo sapiens) (UniProt Q13093)?
Output line: 1.87

Input line: Would you please give the reported inhibition of `O=C(NCc1cccnc1)c1cn(-c2ccccc2)nc1-c1cccs1` with Platelet-activating factor acetylhydrolase (Homo sapiens) (UniProt Q13093)?
Output line: -4.38

* * *

Parameter: inhibition. Scope: all listed entries.
target: Platelet-activating factor acetylhydrolase (Homo sapiens) (UniProt Q13093); assay: pPAFAH enzyme inhibitors, primary screen, biochemical, fluorescence polarization, human (AID 463082); details: recombinant pPAFAH, FP-rhodamine probe fluorescence polarization; at 3.39 µM; stronger effect = higher value;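 also: inhibitors block binding of the rhodamine activity-based probe so polarization drops; 0% = enzyme with DMSO and 100% = wells lacking pPAFAH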
Among all 330,000 compounds or so, about 4,900 (1.5%) were called active. This is one part of a sample in which actives are shown more often than they occur.
Just the number please, in %, no unit attached.

Example cases with answers are listed next.
{"columns": ["Smiles Code", "System Under Test", "inhibition (%)"],
 "data": [
  ["O=C(NC(=S)Nc1ccc(Cl)c(C(=O)O)c1)c1cncc(Br)c1", "Platelet-activating factor acetylhydrolase (Homo sapiens) (UniProt Q13093)", 0.25],
  ["COc1ccc(OCC(=O)NCCc2ccc(S(N)(=O)=O)cc2)cc1", "Platelet-activating factor acetylhydrolase (Homo sapiens) (UniProt Q13093)", -2.47],
  ["Cc1ccn2c(=O)nc(SCC(=O)NCc3ccc(F)cc3)nc2c1", "Platelet-activating factor acetylhydrolase (Homo sapiens) (UniProt Q13093)", 26.8],
  ["COc1ccc(NC(C)=O)cc1NC(=O)CN1CCN(C2c3ccccc3-c3ccccc32)CC1", "Platelet-activating factor acetylhydrolase (Homo sapiens) (UniProt Q13093)", 7.04]
]}

Okay, next one:
Input line: Please give measured inhibition of the following entry: `Cc1ccc(C)c(NC(=S)NNC(=S)Nc2ccc(C(C)C)cc2)c1`
Output line: 22.5

* * *

biological target: Platelet-activating factor acetylhydrolase (Homo sapiens); assay: pPAFAH enzyme inhibitors, primary screen, biochemical, fluorescence polarization, human (AID 463082); conditions: recombinant pPAFAH, FP-rhodamine probe fluorescence polarization; at 3.39 µM; stronger effect = higher value;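 also: inhibitors block binding of the rhodamine activity-based probe so polarization drops; 0% = enzyme with DMSO and 100% = wells lacking pPAFAH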
The campaign covered roughly 330,000 compounds. About 4,900 (1.5%) were called active. Shown is part of a subset that was picked to be rich in actives.
Result Type: inhibition (%)
Just the number please, in %, no unit attached.

Example cases with answers are listed next.
{"columns": ["Compound", "inhibition [%]"],
 "data": [
  ["O=C(COc1ccc(/C=N/NS(=O)(=O)c2ccccc2)cc1)NCCc1ccccc1", 4.79],
  ["CCC(=O)NC(=Nc1nc2ccccc2s1)NC(=O)CC", 1.11]
]}

Input line: Please give measured inhibition of the following entry: `COc1ccccc1-n1cn[nH]c1=S`
Output line: 6.13

Input line: Please give measured inhibition of the following entry: `COc1ccc(-n2c(SCC(=O)OC(C)C)nnc2-c2ccccn2)cc1`
Output line: 6.1

Input line: Please give measured inhibition of the following entry: `Oc1c(Cl)cc(Cl)c(Cl)c1Cc1c(O)c(Cl)cc(Cl)c1Cl`
Output line: 68.2

Input line: Please give measured inhibition of the following entry: COc1ccc(NC(=O)C(NC(C)=O)C(=O)NCc2ccccc2Cl)cc1 (stereo not drawn)
Output line: -2.3

Input line: Please give measured inhibition of the following entry: `Cc1ccccc1CS(=O)(=O)CC1(O)CCN(C(=O)c2cccc(C(F)(F)F)c2)CC1`
Output line: -7.07

Input line: Please give measured inhibition of the following entry: `COc1ccc(CC(=O)Nc2nc(-c3ccc(F)c(F)c3)cs2)cc1OC`
Output line: -1.93

Input line: Please give measured inhibition of the following entry: `Cc1csc(SCC(=O)Nc2sccc2C#N)n1`
Output line: 11.3

Input line: Please give measured inhibition of the following entry: `COc1ccc(OC)c(Nc2nc(-c3ccc(O)c(O)c3)cs2)c1`
Output line: 49.9

Input line: Please give measured inhibition of the following entry: `Cc1ccc(-n2c(Cc3cccs3)nnc2SCC(=O)OC(C)C)cc1`
Output line: 34

Input line: Please give measured inhibition of the following entry: COCC1CCCN(Cc2nc(-c3ccc4c(c3)OCO4)no2)C1 (stereo not drawn)
Output line: 0.91

Input line: Please give measured inhibition of the following entry: O=C1CCC([N+](=O)[O-])C(c2ccccc2Br)N1 (stereo not drawn)
Output line: 2.25

Input line: Please give measured inhibition of the following entry: `Cc1nn(C)cc1C(=O)c1ccccc1`
Output line: -11.2

Input line: Please give measured inhibition of the following entry: Cc1ccc(C2SCC(=O)N2c2ccccc2)cc1 (stereo not drawn)
Output line: 2.44
